# System: Kleb. pneumoniae ATCC 10031
Overview of recorded MIC for various molecules
Answer format: numeric, µg/mL implied, no suffix.

These recorded examples may help you get a feel for the data.
CCn1cc(C(=O)O)c(=O)c2cnc(N3CCNCC3)nc21 [Acide pipémidique, reference compound] :: 2
C[C@@H](N)C(=O)NC1(C)CN(c2c(F)cc3c(=O)c(C(=O)O)cn(C4CC4)c3c2F)C1 :: 0.25
C[C@H](N)C(=O)N[C@@H](C)C(=O)N[C@@H]1CN(c2nc3c(cc2F)c(=O)c(C(=O)O)cn3C2CC2)[C@H]1C :: 8
C[C@H](N)C(=O)N[C@@H]1CN(c2cc3c(cc2F)c(=O)c(C(=O)O)cn3-c2ccc(F)cc2F)[C@H]1C :: 2
NCC(=O)NC1CN(c2nc3c(cc2F)c(=O)c(C(=O)O)cn3-c2ccc(F)cc2F)C1 :: 1

In the following, a different molecule is considered.
[Q] Query: MIC; subject: CCC[C@H](N)C(=O)NC1CN(c2nc3c(cc2F)c(=O)c(C(=O)O)cn3-c2ccc(F)cc2F)C1
[A] 0.12

----------
# assay.comment: Solubility in water and at pH 7.4
# Type: physicochemical
# conditions.used: pH 7
recorded.endpoint: solubility

These recorded examples may help you get a feel for the data.
C[C@H](N)C(=O)NC1CN(c2nc3c(cc2F)c(=O)c(C(=O)O)cn3-c2ccc(F)cc2F)C1 [Exemple 4bA] :: 66.9 µg/mL
C[C@H](N)C(=O)N[C@@H](C)C(=O)N[C@@H]1CN(c2nc3c(cc2F)c(=O)c(C(=O)O)cn3C2CC2)[C@H]1C [Exemple 4aAA] :: > 500 µg/mL
NC1CN(c2nc3c(cc2F)c(=O)c(C(=O)O)cn3-c2ccc(F)cc2F)C1 [Exemple 1b, reference compound] :: 3.7 µg/mL
C[C@@H]1[C@@H](NC(=O)[C@@H](C)N)CN1c1nc2c(cc1F)c(=O)c(C(=O)O)cn2C1CC1 [Exemple 4fa] :: > 500 µg/mL
C[C@H](N)C(=O)N[C@@H]1CN(c2cc3c(cc2F)c(=O)c(C(=O)O)cn3-c2ccc(F)cc2F)[C@H]1C [Exemple 4eA] :: > 500 µg/mL

[Q] Query: solubility; subject: C[C@H]1[C@H](N)CN1c1nc2c(cc1F)c(=O)c(C(=O)O)cn2C1CC1 [Exemple 1a, reference compound]
[A] 16.5 µg/mL

[Q] Repeat for the following molecule: NCC(=O)NC1CN(c2nc3c(cc2F)c(=O)c(C(=O)O)cn3-c2ccc(F)cc2F)C1 [Exemple 4bG]
[A] 7.6 µg/mL

[Q] Repeat for the following molecule: CC(C)C[C@H](N)C(=O)N[C@@H]1CN(c2nc3c(cc2F)c(=O)c(C(=O)O)cn3C2CC2)[C@H]1C [Exemple 4aL]
[A] > 500 µg/mL

[Q] Repeat for the following molecule: CC(C)C[C@H](N)C(=O)NC1CN(c2nc3c(cc2F)c(=O)c(C(=O)O)cn3-c2ccc(F)cc2F)C1 [Exemple 4bL]
[A] 23.1 µg/mL

----------
Serr. marcescens ATCC 13880 MIC data
Answer format: numeric, µg/mL implied, no suffix.

CC(C)C[C@H](N)C(=O)NC1CN(c2nc3c(cc2F)c(=O)c(C(=O)O)cn3-c2ccc(F)cc2F)C1 [Exemple 4bL] :: 2

[Q] Serr. marcescens ATCC 13880 / MIC / CCn1cc(C(=O)O)c(=O)c2cnc(N3CCNCC3)nc21 [Acide pipémidique, reference compound] : value?
[A] 16

[Q] Repeat for the following molecule: CC(C)C[C@H](N)C(=O)N[C@@H]1CN(c2nc3c(cc2F)c(=O)c(C(=O)O)cn3C2CC2)[C@H]1C [Exemple 4aL]
[A] 0.25

----------
# System: Ent. cloacae ATCC 23355
Overview of recorded MIC for various compounds
Answer format: numeric, µg/mL implied, no suffix.

These recorded examples may help you get a feel for the data.
C[C@@H]1[C@@H](NC(=O)[C@@H](C)N)CN1c1nc2c(cc1F)c(=O)c(C(=O)O)cn2C1CC1 :: 4
CC(C)C[C@H](N)C(=O)N[C@@H]1CN(c2nc3c(cc2F)c(=O)c(C(=O)O)cn3C2CC2)[C@H]1C :: 0.12

[Q] Query: MIC; subject: C[C@H](N)C(=O)N[C@@H]1CN(c2cc3c(cc2F)c(=O)c(C(=O)O)cn3-c2ccc(F)cc2F)[C@H]1C
[A] 2

----------
Ent. cloacae ATCC 23355 MIC data
Answer format: numeric, µg/mL implied, no suffix.

CCC[C@H](N)C(=O)NC1CN(c2nc3c(cc2F)c(=O)c(C(=O)O)cn3-c2ccc(F)cc2F)C1 :: 0.5
NCC(=O)NC1CN(c2nc3c(cc2F)c(=O)c(C(=O)O)cn3-c2ccc(F)cc2F)C1 :: 1
CC(C)C[C@H](N)C(=O)NC1CN(c2nc3c(cc2F)c(=O)c(C(=O)O)cn3-c2ccc(F)cc2F)C1 :: 0.5

[Q] Query: MIC; subject: CCn1cc(C(=O)O)c(=O)c2cnc(N3CCNCC3)nc21 [Acide pipémidique, reference compound]
[A] 8

[Q] Repeat for the following molecule: C[C@@H](N)C(=O)NC1(C)CN(c2c(F)cc3c(=O)c(C(=O)O)cn(C4CC4)c3c2F)C1
[A] 0.5

[Q] Repeat for the following molecule: C[C@H](N)C(=O)NC1CN(c2nc3c(cc2F)c(=O)c(C(=O)O)cn3-c2ccc(F)cc2F)C1
[A] 1

[Q] Repeat for the following molecule: C[C@H](N)C(=O)N[C@@H](C)C(=O)N[C@@H]1CN(c2nc3c(cc2F)c(=O)c(C(=O)O)cn3C2CC2)[C@H]1C
[A] 2
